Entry source: PubChem BioAssay (NCI)

System: A498 renal
Test: NCI tumour cell line growth inhibition, 48 h
# TGI annotations
measured parameter: TGI

molecule	system name	reported result
Cc1cc2oc(C)c(S(=O)(=O)NC(=O)Nc3ccc(Cl)cc3)c(=O)c2c(=O)o1	A498 renal	> 100 µM
COc1ccc2[nH]c(C(=O)N3CC(CCl)c4c3cc(N)c3ccccc43)cc2c1 (stereo not given)	A498 renal	0.0399 µM
Cc1cc(O)cc(O)c1C(=O)O[C@]1(C)C(=O)C=C2C=C(/C=C/C(=O)O)OC=C2C1=O	A498 renal	> 100 µM
CNC(=S)NNc1ncnc2c1ncn2-c1ccc(C)cc1	A498 renal	> 100 µM
CC(=O)Oc1cc(OC(C)=O)c2c(C)cc(=O)oc2c1	A498 renal	> 100 µM
Cc1ccc(S(=O)(=O)n2ccc(-c3ccc4ccn(S(=O)(=O)c5ccc(C)cc5)c4c3)c2)cc1	A498 renal	> 100 µM
CCN(CC)CCOc1ccc(C(O)(Cc2ccc(OC)cc2)c2ccccc2)cc1 (stereo not given)	A498 renal	41.2 µM
Cc1cc(N(CCC#N)CCC#N)ccc1/C=C1\SC(=S)NC1=O	A498 renal	> 100 µM
Cc1ccc(C2=C(c3ccc(C)cc3)C(c3ccc(C)cc3)=C(c3ccc(C)cc3)C2=O)cc1	A498 renal	> 100 µM
Cc1cc(N2CCCC2)c([N+](=O)[O-])cc1[N+](=O)[O-]	A498 renal	> 100 µM
O=C(O)CCc1ccc2c(c1)CC1(Cc3ccccc3C1)C2	A498 renal	> 100 µM
Cn1ccnc1CCc1ccc(Cl)c(Cl)c1	A498 renal	> 100 µM
COC1=C2C=[N+](C)C3C(=C2C=CC1OC)Cc1cc2c(cc13)OCO2 (stereo not given)	A498 renal	> 100 µM
O=C1CS(=O)(=O)C(c2cccc(Oc3ccccc3)c2)N1c1ccccc1 (stereo not given)	A498 renal	41.8 µM
Nc1c(C(=O)N/N=C/c2ccc(-c3cc(Cl)c(Cl)cc3Cl)o2)cnn1-c1ccnc2c(C(F)(F)F)cccc12	A498 renal	37.7 µM

---

Test system: SF-295 CNS
Experiment: NCI tumour cell line growth inhibition, 48 h
# TGI annotations

smiles data	system name	TGI
C[C@@H](COCCC(=O)N1CCN(c2ncc(C(F)(F)F)cn2)CC1)Nc1cn[nH]c(=O)c1C(F)(F)F	SF-295 CNS	> 100 µM
N#C/C(=C\c1c(-c2ccccc2)[nH]c2ccccc12)C(=O)c1ccccc1	SF-295 CNS	> 100 µM
NC(=O)c1ccccc1NC(=O)c1ccccc1Cl	SF-295 CNS	> 100 µM
Clc1ccc(CNc2nccc(-c3cnn4ncccc34)n2)cc1	SF-295 CNS	> 18.2 µM
S=c1sc2cscc2s1	SF-295 CNS	> 100 µM
NS(=O)(=O)c1ccc(-n2ncc3c(Nc4ccccc4)ncnc32)cc1	SF-295 CNS	53.4 µM

---

Tested on: TK-10 renal
Experiment: NCI tumour cell line growth inhibition, 48 h
# TGI annotations

compound	TGI
Cc1cc(O)cc(O)c1C(=O)O[C@]1(C)C(=O)C=C2C=C(/C=C/C(=O)O)OC=C2C1=O	> 100 µM
COC(=O)NC(Cc1ccccc1)NC(C)=O (stereo not drawn)	> 100 µM
CC(=O)OC(C)c1cc2c(s1)C(=O)c1c(C(C)OC(C)=O)csc1C2=O (stereo not drawn)	5.69 µM
CSc1ccc(SC2c3ccc(C)cc3Oc3nc(N)c(C#N)c(N)c32)cc1 (stereo not drawn)	3.37 µM
Cc1c(-c2nnc(-c3ccccc3)o2)c(=O)n(-c2ccccc2)n1C	> 100 µM
O=C(c1ccc(O)c([N+](=O)[O-])c1)c1ccc(O)c([N+](=O)[O-])c1	> 100 µM
O=C(C(Cl)=C(N1CCCCC1)N1CCCCC1)C(Cl)Cl	> 100 µM
CC(=O)/C=C1\CC(=O)Nc2ccccc2N1	> 100 µM
COCC12CCC(OC)C34C5CC6(O)C(OC)CC(OC(C)=O)(C5C6OC(=O)c5ccccc5)C(C(OC)C13)C4N(C)C2 (stereo not drawn)	> 100 µM
COC(=O)[C@H](C)NC(=O)[C@@H](OC)[C@@H]1Cc2cc3cc(OC4CC(OC5CC(O)C(O)C(C)O5)C(O)C(C)O4)c(C)c(O)c3c(O)c2C(=O)[C@H]1OC1CC(OC2CC(OC3CC(C)(O)C(O)C(C)O3)C(O)C(C)O2)C(O)C(C)O1 (stereo partly drawn)	> 50 µM
CC(C)CC12CC3CCC(CNC1=O)C32C (stereo not drawn)	> 100 µM
COc1cc2c(cc1OC)[C@@](C)(C(O)C(O)C(C)(C)O)NCC2 (stereo partly drawn)	> 100 µM
COc1cc(NC(=O)NCc2ccco2)ccc1-c1ccc(NC(=O)NCc2ccco2)cc1OC	9.87 µM
NC(CC(O)(c1ccccc1)c1ccccc1)c1ccccc1S (stereo not drawn)	29.7 µM
Cn1c(=O)c(C(=O)NC(=O)NCCCCCOC(=O)CCCCCCCCCCC(=O)OCCCCCNC(=O)NC(=O)c2cn(Cc3ccccc3)c(=O)n(C)c2=O)cn(Cc2ccccc2)c1=O	> 100 µM
Cc1ccc2c(C(=O)c3c(C)n(CCN4CCOCC4)c4ccccc34)cccc2c1	55.6 µM
CC(=O)N(C(C)=O)n1c(Cc2ccc(C)cc2)nn(C(C)=O)c1=O	> 100 µM
CN(Cc1cnc2nc(N)nc(N)c2n1)c1ccc(C(=O)NC(CCC(=O)NC(CC(P(=O)(O)O)P(=O)(O)O)C(=O)O)C(=O)O)cc1 (stereo not drawn)	> 100 µM
